Origin of the recorded values: paper PMC3100226

# assay.system: GABA-A (muscimol site)
# test.name: Receptor characterization panel: GABA-A muscimol site binding
# condition.parameters: read-out: Reference agents (IC50); [3H]Muscimol; cerebral cortex/rat
readout: IC50
Include the unit right after the number.

Record request: IC50 value, item NCc1cc(=O)[nH]o1 [Muscimol, reference compound]
15 nM

----------
# assay.system: Alpha 1 (A+B)
# test.name: Receptor characterization panel: Alpha 1 binding
# condition.parameters: read-out: Reference agents (IC50); [3H]Prazosin; whole brain/rat
readout: pIC50
Expect pIC50 as a plain number equal to -log10 of the molar concentration.

What pIC50 appears in the records for this molecule with Alpha 1 (A+B)? COc1ccccc1N1CCN(CCCNc2c(C)c(=O)n(C)c(=O)n2C)CC1
7.42
